Values from paper PMC12040169

experiment.description: in vitro
cond: human, hela cells, % viability
Classify: 1.0 when viability at 28.5 h, 10 µM is strictly less than 90%; 0.0 when viability at 28.5 h, 10 µM is not.

stdin: Bench note: check whether C[C@H](Cn1nc2c(cc1=O)CCCCC2)NC(=O)c1ccco1 shows viability at 28.5 h, 10 µM below 90%
stdout: 1.0

stdin: Bench note: check whether Nc1nc2n(n1)C(c1ccccc1)C1=C(CCCC1)N2 (stereo not shown) shows viability at 28.5 h, 10 µM below 90%
stdout: 0.0

stdin: Bench note: check whether O=C(Nc1ccnn1Cc1cc(Br)cs1)c1ccc2ncsc2c1 shows viability at 28.5 h, 10 µM below 90%
stdout: 0.0

stdin: Bench note: check whether Cc1ccc(NC(=O)CCN2C(=O)c3cccc([N+](=O)[O-])c3C2=O)c(Br)c1 shows viability at 28.5 h, 10 µM below 90%
stdout: 0.0

stdin: Bench note: check whether CC(C(=O)Nc1c(F)cc(F)cc1OC1CCNCC1)c1ccccc1 (stereo not shown) [CBK045896T] shows viability at 28.5 h, 10 µM below 90%
stdout: 0.0

stdin: Bench note: check whether CC(=O)c1ccccc1-c1cnc(N(C)S(C)(=O)=O)c(C(=O)NCCc2ccccc2)c1 shows viability at 28.5 h, 10 µM below 90%
stdout: 0.0

stdin: Bench note: check whether Cc1ccc(C)c(S(=O)(=O)NCCCn2ccnc2)c1 shows viability at 28.5 h, 10 µM below 90%
stdout: 0.0

stdin: Bench note: check whether N#C/C(=C\c1ccc(C(=O)O)cc1)C(=O)NCC1CCCO1 (stereo not shown) shows viability at 28.5 h, 10 µM below 90%
stdout: 0.0

stdin: Bench note: check whether O=C(O)Cn1cc(C(=O)COc2ccccc2)c2ccccc21 shows viability at 28.5 h, 10 µM below 90%
stdout: 1.0

stdin: Bench note: check whether O=C(CSc1nnc(COc2cccc3cccnc23)n1-c1ccccc1)N1CCCC1 shows viability at 28.5 h, 10 µM below 90%
stdout: 1.0

---
stdin: Bench note: check whether COc1ccccc1-c1ccc(CC2(C(=O)NCc3cccs3)CCOCC2)cc1 shows viability at 28.5 h, 10 µM below 90%
stdout: 0.0

---

experiment.description: in vitro
cond: human, hela cells, % viability
viability at 28.5 h, 10 µM values by entry
Don't forget the unit after the value.

Solved cases (8 shown):
stdin: Consider the compound Nc1nonc1-n1nnc(C(=O)N/N=C/c2nc3ccccc3[nH]2)c1-c1ccccc1 . State its measured viability at 28.5 h, 10 µM.
stdout: 93.8%

stdin: Consider the compound COc1cccc(CN2CCN(S(=O)(=O)c3ccccc3[N+](=O)[O-])CC2)c1OC . State its measured viability at 28.5 h, 10 µM.
stdout: 87.4%

stdin: Consider the compound CN(C)CC1CN(C(=O)Cc2ccccc2F)Cc2ccccc2O1 (stereo not drawn) . State its measured viability at 28.5 h, 10 µM.
stdout: 90.4%

stdin: Consider the compound CCC1SC2=NC(C)=C(C(=O)OCc3ccccc3)C(c3ccccc3)N2C1=O (stereo not drawn) . State its measured viability at 28.5 h, 10 µM.
stdout: 82.7%

stdin: Consider the compound COc1ccc(CNC(=O)c2cc(S(=O)(=O)N3CCCC3)c[nH]2)cc1 . State its measured viability at 28.5 h, 10 µM.
stdout: 102%

stdin: Consider the compound O=C(NCCN1CCOCC1)C1CCCN(c2nc3c(-c4ccccc4)csc3c(=O)[nH]2)C1 (stereo not drawn) . State its measured viability at 28.5 h, 10 µM.
stdout: 106%

stdin: Consider the compound O=C(O)CN(c1ccc(F)cc1)S(=O)(=O)c1ccc2c(c1)OCCO2 . State its measured viability at 28.5 h, 10 µM.
stdout: 84.1%

stdin: Consider the compound CCCc1cc(O)nc(SCC(=O)Nc2ccc(Cl)cc2Cl)n1 . State its measured viability at 28.5 h, 10 µM.
stdout: 83.7%

Continue with the next compound.
stdin: Consider the compound OCCN1CCN(c2nc(-c3cccnc3)cn3ccnc23)CC1 . State its measured viability at 28.5 h, 10 µM.
stdout: 99.3%

---

experiment.description: in vitro
cond: human, hela cells, % viability
endpoint.name: viability at 28.5 h, 10 µM (%)
Your answer should be a plain number; it is taken to be in %.

stdin: Consider the compound CC(C)(O)C(=O)NCc1nc2c(s1)CC(c1ccccc1)CC2 (centres unmarked) . State its measured viability at 28.5 h, 10 µM.
stdout: 77.3

stdin: Consider the compound CCOc1ccc(-c2cnc(SCC(=O)O)nc2N)cc1 . State its measured viability at 28.5 h, 10 µM.
stdout: 105

stdin: Consider the compound CC1CCCCN1S(=O)(=O)c1ccc(NC(=O)CCn2cnc3ccccc3c2=O)cc1 (centres unmarked) . State its measured viability at 28.5 h, 10 µM.
stdout: 95.5

stdin: Consider the compound COC(=O)CCn1c(-c2ccccn2)cc2cccnc21 . State its measured viability at 28.5 h, 10 µM.
stdout: 89.8

Continue with the next compound.
stdin: Consider the compound CCNc1nc(=S)[nH]c2sc3c(c12)CCC(C)C3 (centres unmarked) . State its measured viability at 28.5 h, 10 µM.
stdout: 89.2

---

experiment.description: in vitro
cond: human, hela cells, % viability
endpoint.name: viability at 28.5 h, 10 µM
Don't forget the unit after the value.

stdin: Consider the compound O=C(NC1CCCC1)c1ccc(-c2cnc3[nH]c(=O)n(C4CCCCC4)c3n2)cc1 . State its measured viability at 28.5 h, 10 µM.
stdout: 113%

---
stdin: Consider the compound O=C(Cn1ccc(=O)[nH]c1=O)Nc1ccc(OCC(F)(F)F)cc1 . State its measured viability at 28.5 h, 10 µM.
stdout: 98%

stdin: Consider the compound COC(C)(C)C(=O)N1CCC2(C/C=C/Cc3ccccc3OCC(=O)NCCNC2=O)CC1 . State its measured viability at 28.5 h, 10 µM.
stdout: 105%

stdin: Consider the compound CCCOc1c(Cl)cc(/C=C2\N=C(c3ccc(OC)cc3)OC2=O)cc1OCC . State its measured viability at 28.5 h, 10 µM.
stdout: 93.3%

---

viability at 28.5 h, 10 µM values by entry
experiment.description: in vitro
cond: human, hela cells, % viability
Your answer should be a plain number; it is taken to be in %.

stdin: Consider the molecule COCC1CCN(c2ncc(C#N)cc2Cl)CC1 . State its measured viability at 28.5 h, 10 µM.
stdout: 61.1

stdin: Consider the molecule O=C(NCCO)NC(=S)c1ccccc1 . State its measured viability at 28.5 h, 10 µM.
stdout: 95.2

stdin: Consider the molecule CN(c1ncc(Br)cc1C(=O)NC1CCCCC1)S(C)(=O)=O . State its measured viability at 28.5 h, 10 µM.
stdout: 111

---

experiment.description: in vitro
cond: human, hela cells, % viability
endpoint.name: viability at 28.5 h, 10 µM (%)
Your answer should be a plain number; it is taken to be in %.

Solved cases (6 shown):
stdin: Consider the compound NCCC(O)(P(=O)(O)O)P(=O)(O)O [CBK260913] . State its measured viability at 28.5 h, 10 µM.
stdout: 97.6

stdin: Consider the compound CCOc1ccccc1OCCCOc1ccc(C(=O)O)cc1 [CBK295144] . State its measured viability at 28.5 h, 10 µM.
stdout: 110

stdin: Consider the compound O=C(CN1C(=O)c2ccccc2C1=O)Nc1cccc(C(=O)O)c1 [CBK287040] . State its measured viability at 28.5 h, 10 µM.
stdout: 110

stdin: Consider the compound O=C(CN1C(=O)N2CCN=C2c2ccccc21)NC1CC1 [CBK283958] . State its measured viability at 28.5 h, 10 µM.
stdout: 93.1

stdin: Consider the compound Cc1ccc(-c2cc(C(=O)NCc3cnn(C)c3)c3cc(Br)ccc3n2)cc1 [CBK293959] . State its measured viability at 28.5 h, 10 µM.
stdout: 89.1

stdin: Consider the compound COCCNc1nc(-c2cccc(F)c2)cn2ccnc12 [CBK066465] . State its measured viability at 28.5 h, 10 µM.
stdout: 98.4

---
stdin: Consider the compound CC(Cc1ccccn1)N(C)C(=O)c1cccc(N2CCCC2=O)c1 (stereo not drawn) [CBK282153] . State its measured viability at 28.5 h, 10 µM.
stdout: 104

stdin: Consider the compound O=C(NC(C(=O)N/N=C/c1coc2ccccc2c1=O)c1n[nH]c(=O)c2ccccc12)c1ccccc1 (stereo not drawn) [CBK262847] . State its measured viability at 28.5 h, 10 µM.
stdout: 95.3

stdin: Consider the compound O=S(=O)(Nc1ncccn1)c1ccc(NC(=S)Nc2ccc3c(c2)OCO3)cc1 [CBK267046] . State its measured viability at 28.5 h, 10 µM.
stdout: 89

stdin: Consider the compound Cc1nn(C)c(N2CCNCC2)c1NC(=O)CN(C)C(=O)c1ccccc1 [CBK050255T] . State its measured viability at 28.5 h, 10 µM.
stdout: 109

stdin: Consider the compound CCn1ncc2c1CCCC2NC1CCN(c2ccc(C#N)cc2)C1=O (stereo not drawn) [CBK305200] . State its measured viability at 28.5 h, 10 µM.
stdout: 96.8

stdin: Consider the compound C=C(C)CNC(=O)c1cc(-c2cccc(NC(C)=O)c2)cnc1N(C)S(C)(=O)=O [CBK076622] . State its measured viability at 28.5 h, 10 µM.
stdout: 93.9

stdin: Consider the compound O=C(O)c1cccc(CSCC(=O)N2CCC(Cc3ccccc3)CC2)c1 [CBK296675] . State its measured viability at 28.5 h, 10 µM.
stdout: 102
